assay: yeast display, Sf9 membrane polyspecificity reagent, FACS + sequencing; frameworks hold sequencing errors
MEASUREMENT KIND: polyreactivity (PSR sort gate)

QVQLVESGGCLVQAGGSLRLSCAASGRIIGANAMGWYRQAPGKERELVAAITKNGGRTYYADSVKGRFTISRDNAKNTVYLQMNSLKPEDTAVYYCARGLDVISYGYDYWVQGTQVTVSS ... high polyreactivity
QVQLGESGGGLVQAGGSLRLSCAASGFIFFYYAMGRYRQAPGKERELVAVNTRGGSTYYADSVKGRFTISRDNAKNTVYLQMNSLKPVDTAVYYCAAGIFYYRYYQVDYWGQGTQVTVSS ... high polyreactivity

###

test: yeast display, Sf9 membrane polyspecificity reagent, FACS + sequencing; frameworks hold sequencing errors
MEASUREMENT KIND: polyreactivity (PSR sort gate)

A selection of reference data follows.
QVQLVESGGGLVQAGGSLRLSCAASGFIFAQNAMGWYRQAPGKERELVAAISGSGGRTYYADSVKGRFTISRDNAKNTVYLQMNSLKPEDTAVYYCAAQYFSGYWGQGTQVTVSS ... high polyreactivity
QVQLVESGGGLVQAGGSLRLSCAASGSIFRLYAMGWYRQAPGKERELVAAISWTVGRTYYADSVKGRFTISRDNAKNTVYVQMNSLKPEDTAVYYCAAEKRILANWRRFDYWGQGTQVTVSS ... low polyreactivity
QVQLVESGGGLVQAGGSLRLSSAASGRTFSSYAMGWYRQAPGKERELVAAINWSGASTYYADSVKGRFTISRDNAKNTVYLQMNSLKPEDTAVYYCAKSLYVGKYWQIRSSVDYWGQGTQVTVSS ... low polyreactivity
QVQLVESGGGLVQAGGSLSLSCAASGNIFSYNAMGWYRQAPGKERELVAAITWAGSTYADSVKGRFTISRDNAKNTVFLQRNSLKPEDTAVYYCNAANDSGYDYWGQGTQVTVSS ... low polyreactivity
LVQLVESGGGLVQAGGSLSLSCAAYGRTFAKNAMGWYRQAPGKERDLVAVINRSGGSTYADSVKGRFTISRDNAKNTVYLQMNSLKPEDTAVYYWADYYFRSYSKTYIYPFDYWGQGSQVTVSS ... low polyreactivity

Look at this sequence and give its reported polyreactivity (PSR sort gate). "QVQLVESGGGLVQAGGSLRLSCAASGSIIRRNVMGWYRQAPGKERELVAASSWSGDRTYYADSVKGRFTISRDNAKNTVYLQMNSLKPEDTAVYYCAAANASPRRYGQYDYWGQGTQVTVSS"
high polyreactivity

Can you handle "QVQLVESGGGLVQAGGSLRLSCAASGRTFTRYTMGWYRQAPGKERELVAGITRSGGSTYYADSVKGRFTISRDNAKNTVYLQMNSLKPEDTAVYYCAARLSGRYDSQDNYWGQGTQVTVSS" next?
high polyreactivity

Can you handle "QVQLVESGGGLVQAGGSLRLSCAASGRIFRFYAMGWYRQAPGKERELVAAITRNVGSTFYADSVKGRFTISRDNAKNTVYLQMNSLKPEDTAVYYCAAESDYYYRYTFDYWGQGTLVTVSS" next?
low polyreactivity

###

assay: yeast display, Sf9 membrane polyspecificity reagent, FACS + sequencing; frameworks hold sequencing errors
MEASUREMENT KIND: polyreactivity (PSR sort gate)

A selection of reference data follows.
QVQLVESVGGLVQAGGSLRLSCAASGFTFTWYDMGWYRQAPGKERELVAAITTDGGSTYYADSVKGRFTISRDNATNTVYLQMNSLKPEDTEVYYCAAAGYLPFPVEYEYWGQGTQVTVSS ... high polyreactivity
QVQLVESGGGLVQAGGSLRLSCAASGLIFGVNAMGLYRQAPGTESELVAAITSRGGSTYYADSVKGRFTISRDNAKNTVYLQMNSLKPEDTAVDYCAAKYAYYEPYSWRPQRTYNYWGQGTQVTVSS ... high polyreactivity
QVQLVESGGGLVQAGGSLRLSCAASGRIFSRNAMGWYRQAPGKERELVAAITWRGGSTYYADSVKGRFTISRDNAKNTVYLQMNSLKPEDTAVYYCNRDYRQYGYAYSGRYYWGQGTQVTVSS ... high polyreactivity
QVQLVESGGGLVQAGGSLRLSCAASGSTFQYNDMGWYRQAPGKERELVAAISSSGGSTSYADSVKGRFTISRDNAKNTVYLQMNSLKPEDTAVYYCAASYPGYHLYRDDYWGQGTQVTVSS ... low polyreactivity
QVQLVESGGGLVQAGGSLRLSCAASGSTFYYYAMGWYRQAPGKEREFVAAISGGDGTTSYADSVKGRFTISRDNAKNTVYLQMNSLKPEDTAVYYCATPYTSYLYGYDYWGQGTQVTVSS ... low polyreactivity

Look at this sequence and give its reported polyreactivity (PSR sort gate). "QVQLVESGGCLVQAGGSLRLSCAASGFTFGPYAMGWYRQARGKERELVATLRSGDSTNYADSVKGRFTISRDNAKNTVYLQMNSVKPDDTAVYYCAVSYLSTMGRSRYEYWGQGTQVTVSS"
low polyreactivity

Can you handle "QVQLVESGGGLVQAGGSLRLSCAASGFTFPYYSMGWYRQAPGTERELVAPISYNGGSTYYADSVMGRFTISRDNAKNTVYLQMNSRNPEDTAVYYCNAVYSDSGVVGYYYWGQGTQVTVSS" next?
high polyreactivity

Can you handle "QVQLVESGGGLVQAGGSLRLSCAASGSIFEPNAMGWYRQAPGKEREFVAAISGSGGSTYYADSVKGRFTISRDNAKNTVYLQMNSLKPEDTAVYYCATRGKRSYFRTFYYWGQGTQVTVSS" next?
high polyreactivity
